Quick reference for melting point among some molecules

(Q) Find the recorded melting point belonging to CCc1nc2ccn(-c3ccccc3)n2c(=O)c1C(=O)O and report it.
(A) 119 to 120 °C

---
(Q) Find the recorded melting point belonging to O=C(CN1c2nc(-c3ccncc3)cc(=O)n2CCC1c1ccccc1)c1ccc2ccccc2c1 (stereo unspecified) and report it.
(A) 226 to 228 °C

(Q) What about O=C(Nc1nccs1)c1c(C(F)(F)F)nc(-c2cccs2)c(-c2ccccc2)c1O ?
(A) 136 °C

(Q) What about CC(N)=CC(=O)CS(=O)(=O)N(C)C ?
(A) 137 to 140 °C

* * *

experimental-readout: melting point

Examples from the recorded data:
(Q) Find the recorded melting point belonging to c1ccc(Cc2cnc(N3CCN(c4ncnc5ccccc45)CC3)nc2)cc1 and report it.
(A) > 250 °C

(Q) What about CC(C)=NNc1nc(C(Cl)(Cl)Cl)ns1 ?
(A) 66 °C

(Q) What about COc1cccc2c1CC(C(=O)NCCOc1ccc(C(=O)OC(C)(C)C)cc1)N2S(=O)(=O)c1ccc(-c2ccc(F)cc2Cl)cc1 (stereo not drawn) ?
(A) 79 to 85 °C

(Q) What about Cc1cc(Cl)ccc1OCC(=O)N1Cc2ccc(C(=O)NCc3cccnc3)n2Cc2ccccc21 ?
(A) 168 °C

(Q) What about CCOC(=O)C(=CNc1cccc(C(F)(F)F)n1)C(=O)OCC ?
(A) 125 to 128 °C

---
(Q) Find the recorded melting point belonging to COc1ccc(C(=NO)c2ccccc2F)c(O)c1C and report it.
(A) 167 to 169 °C

(Q) What about COc1ccc(C(=O)Nc2ccncc2)c2c1[nH]c1ccccc12 ?
(A) > 250 °C

(Q) What about O=C1NC(=O)C(=Cc2ccc(N3CCC4(CC3)OCCO4)c(F)c2)S1 ?
(A) 159 to 160 °C

(Q) What about Cc1ccsc1C(=O)c1sc(Nc2ccc(-n3ccnc3)cc2)nc1N ?
(A) > 300 °C

(Q) What about CC(C)c1ccc2nc3ccc(C(=O)O)cc3c(=O)n2c1 ?
(A) 312 to 316 °C

(Q) What about COc1ccc(C2=Nc3cccnc3Nc3ccccc32)cc1 ?
(A) 198 to 200 °C

(Q) What about COc1cc2c(cc1O)C(C1(c3ccccc3Br)CCC1)N(C)CC2 (stereo not drawn) ?
(A) 48 to 51 °C

(Q) What about O=C(NCC12CC3CC(CC(C3)C1)C2)c1cc(F)ccc1Br ?
(A) 143 to 144 °C
